- Target: recombinant human KLK5 (human) (UniProt Q9Y337)
- Sequence (Q9Y337 67-293): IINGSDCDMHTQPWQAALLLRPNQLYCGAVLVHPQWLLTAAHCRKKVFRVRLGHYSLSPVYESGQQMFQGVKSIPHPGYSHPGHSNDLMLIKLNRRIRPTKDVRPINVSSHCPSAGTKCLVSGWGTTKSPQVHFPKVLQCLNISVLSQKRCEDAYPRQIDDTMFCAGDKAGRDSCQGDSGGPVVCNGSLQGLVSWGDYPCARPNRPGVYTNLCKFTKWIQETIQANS
- Assay remarks: pro-KLK7 LC/MS assay, 5 nM KLK5, 15 nM pro-KLK7, nM
// values below are reported pIC50
Keep it numeric: pIC50 is minus log10 of the concentration in mol/L.

Q: Query: pIC50; subject: 10C5 (antibody, V domains shown) VH: QSLEESGGGLVKPTDTLTLTCTVSGFSLSSYGVTWVRQAPGRGLEWIGYITSNYGVSYYASWAKSRSTITRNTNLNTVTLKMTSLTAADTATYFCARENPDYGYAYDAWGPGTLVTVSV VL: AYDMTQTPASLEAAVGGTVTINCQASESISNELSWYQQKPGQPPDLLIYYASTLASGVPSRFKGSGSGTEFTLTISDLECADAATYYCAQGFGSSGVENVFGGGTEVVVK
A: 9.51
